All values here come from PubChem BioAssay AID1159580.

Assay: chemical genetic growth profiling, strain panel (AID 1159580);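 also: tested at 20 µM; growth read once vehicle control cultures reached saturation at 30 °C; 1 = growth at the plate median or of vehicle wells; lower values mean less growth of the strain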
Details: S. cerevisiae deletion strains, growth OD, locus YDR195W, strain ref2
Hit rate of the full screen: of about 5,500 compounds, about 2,000 (36%) were called active. Another 18% or so got no clear call; they are omitted. The list shows a part of the results.
Result Type: normalized growth

compound="COc1ccc2c(c1)OCC(Cc1ccc(OC)c(OC)c1)C2=O (configuration not stated)" result_type="normalized growth" recorded_measurement="1.06 (inactive)"
compound="COC[C@]12CN(C=O)C3[C@@H]4[C@H](OC)C1[C@]3(C1CC3(O)C(OC)C(O)C4(OC(C)=O)C1C3OC(=O)c1ccccc1)[C@@H](OC)C[C@H]2O (some centres not stated)" result_type="normalized growth" recorded_measurement="1.01 (inactive)"
compound="COc1ccc2c(c1)OCC(Cc1ccc(OC)c(O)c1)C2=O (configuration not stated)" result_type="normalized growth" recorded_measurement="1.23 [resistant] (active)"
compound="Cc1cccc(C)c1NC(=O)C1CCCCN1C (configuration not stated)" result_type="normalized growth" recorded_measurement="0.986 (inactive)"
compound="COc1ccnc(CS(=O)c2nc3ccc(OC(F)F)cc3[nH]2)c1OC (configuration not stated)" result_type="normalized growth" recorded_measurement="1.01 (inactive)"
compound="CC1(C)C(=O)[C@@H]2O[C@@H]2[C@@]2(C)C1C[C@@H](O)[C@]1(C)C2CC[C@@]2(C)[C@H](c3ccoc3)OC(=O)C3OC321 (some centres not stated)" result_type="normalized growth" recorded_measurement="0.989 (inactive)"
compound="CC(=O)O[C@@H]1CC2C(C)(C)[C@@H](O)CC[C@]2(C)C2CC[C@@]3(C)[C@H](c4ccoc4)OC(=O)[C@H]4O[C@]43[C@@]21C (some centres not stated)" result_type="normalized growth" recorded_measurement="0.981 (inactive)"
compound="CC(=O)C1CC[C@H]2C3CC[C@H]4C[C@H](O)CC[C@]4(C)C3CC[C@]12C (some centres not stated)" result_type="normalized growth" recorded_measurement="1.02 (inactive)"
compound="O=C(O)CCC1NCC2CC1CN1CCCCC21 (configuration not stated)" result_type="normalized growth" recorded_measurement="0.975 (inactive)"
compound="C[C@@H]1CC[C@H]2C(C)(C)C3CC12CC[C@@]3(C)O (some centres not stated)" result_type="normalized growth" recorded_measurement="0.318 (active)"
compound="CC(=O)O[C@H]1CC[C@@]2(C)C(C[C@@H](OC(C)=O)[C@]3(C)C2CC[C@@]2(C)[C@H](c4ccoc4)OC(=O)[C@H]4O[C@]423)C1(C)C (some centres not stated)" result_type="normalized growth" recorded_measurement="0.93 (inactive)"
compound="COc1cc2c(cc1OC)C1(O)C(=O)c3ccc(O)c(C(=O)O)c3OC1CO2 (configuration not stated)" result_type="normalized growth" recorded_measurement="0.955 (inactive)"
compound="CCN1C[C@@]2(COC)C3[C@@H](OC)[C@H]4[C@@H]1[C@]3(C(OC)C[C@H]2O)C1C[C@@]2(O)[C@H](OC(=O)c3ccccc3)C1[C@]4(OC(C)=O)[C@@H](O)[C@@H]2OC (some centres not stated)" result_type="normalized growth" recorded_measurement="0.97 (inactive)"
compound=C1N2CN3CN1CN(C2)C3 result_type="normalized growth" recorded_measurement="1.01 (inactive)"
compound="COc1ccc2c(c1)OCC(Cc1ccc(OC)c(OC(C)=O)c1)C2=O (configuration not stated)" result_type="normalized growth" recorded_measurement="1.04 (inactive)"
compound="NCC[C@@H](O)C(=O)N[C@@H]1C[C@H](N)[C@@H](O[C@H]2O[C@H](CN)[C@@H](O)[C@H](O)[C@H]2O)[C@H](O)[C@H]1O[C@H]1O[C@H](CO)[C@@H](O)[C@H](N)C1O (some centres not stated)" result_type="normalized growth" recorded_measurement="1.08 (inactive)"
compound=Nc1nc(F)nc2c1ncn2[C@@H]1O[C@H](COP(=O)(O)O)[C@@H](O)[C@@H]1O result_type="normalized growth" recorded_measurement="0.968 (inactive)"
